Where these numbers come from: patent US11485728B2

# tested.on: CYP2D6 (Homo sapiens, UniProt P10635)
# Construct: from tissue; host or cells: pooled human liver microsomes
# Sequence (P10635 whole entry): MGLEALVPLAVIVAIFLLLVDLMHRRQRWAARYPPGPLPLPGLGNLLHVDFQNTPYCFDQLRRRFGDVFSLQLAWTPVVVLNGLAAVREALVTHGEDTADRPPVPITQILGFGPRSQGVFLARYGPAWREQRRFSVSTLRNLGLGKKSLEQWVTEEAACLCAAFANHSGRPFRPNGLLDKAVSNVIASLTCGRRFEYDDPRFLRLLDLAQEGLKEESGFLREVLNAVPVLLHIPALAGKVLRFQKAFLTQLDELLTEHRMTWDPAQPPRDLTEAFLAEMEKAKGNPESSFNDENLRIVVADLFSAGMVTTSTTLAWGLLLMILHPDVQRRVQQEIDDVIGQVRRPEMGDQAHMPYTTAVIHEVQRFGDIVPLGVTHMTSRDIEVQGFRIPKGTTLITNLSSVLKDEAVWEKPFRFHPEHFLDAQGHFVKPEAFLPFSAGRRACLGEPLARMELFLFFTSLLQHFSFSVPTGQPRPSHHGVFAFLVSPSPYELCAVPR
# experiment.notes: CYP-direct inhibition, CYP2D6
# Assay type: in vitro ADME
quantity.name: pIC50
Give bare numbers, as −log10 of the molar value.

The value of pIC50 measured for the compound COc1cc2c(NC3CCN(C(C)C)CC3)nc(N3CCC(F)(F)CC3)nc2cc1OCCCN1CCCC1 [Compound 400, reference compound] turned out to be 4.54

###

# Tested on: HCT-116
# experiment.notes: HCT-116 cell viability (Real-Time-Glo)
# Format: cell-based
# condition.label: Homo sapiens, 72 hr, read-out: IC50, Cell line: HCT-116
So I've got a bunch of compounds here, and I need their IC50 values.

Query COc1cc2c(NC3CCOCC3)nc(N3CCCC3)nc2cc1OCCCN1CCCC1 [Compound 164] on HCT-116; IC50 returned: 1 to 5 µM

Lab note: each compound below needs its IC50 filled in.
1. COc1cc2c(NC3CCN(C(C)C)CC3)nc(-n3ccnc3)nc2cc1OCCCN1CCCC1 [Compound 156]
2. COCCN1CCC(Nc2nc(N3CCC(F)(F)CC3)nc3cc(OCCCN4CCCC4)c(OC)cc23)CC1 [Compound 3]
3. COc1cc2c(NC3CCOCC3)nc(N3CCC3)nc2cc1OCCCN1CCCC1 [Compound 174]
4. COCCNc1nc(N2CCC(F)(F)CC2)nc2cc(OCCCN3CCCC3)c(OC)cc12 [Compound 4]

[reply]
1 to 5 µM
1 to 5 µM
1 to 5 µM
1 to 5 µM

###

# System: C57BL/6 mice with DSS colitis
# experiment.notes: DSS colitis in C57BL/6 mice
# Format: in vivo
# condition.label: 25 mg/kg PO daily; day twelve
quantity.name: DSS Efficacy

The value of DSS Efficacy measured for the compound COc1cc2c(NC3CCOCC3)nc(N3CCCC3)nc2cc1C#CCN1CCCC1 turned out to be ++

The value of DSS Efficacy measured for the compound COc1cc2c(Nc3ccccn3)nc(N3CCC(F)(F)CC3)nc2cc1OCCCN1CCCC1 turned out to be −

The value of DSS Efficacy measured for the compound COc1cc2c(NC3CCOCC3)nc(N3CCCC3)nc2cc1OCCCN1CCCC1 turned out to be ++

The value of DSS Efficacy measured for the compound COc1cc2c(NC3CCS(=O)(=O)CC3)nc(SC(C)C)nc2cc1OCCCN1CCCC1 turned out to be +

###

So I've got a bunch of compounds here, and I need their half-life at 1 μg/mL values.
# experiment.notes: In-vitro half-life in mouse liver microsomes
# Type: in vitro ADME
# condition.label: Mouse liver microsomes 0.5 mg/mL; 1 μg/mL drug; NRS; read-out: Metabolic Half-life

Lab note: each compound below needs its half-life at 1 μg/mL filled in.
1. COc1cc2c(NC3CCOCC3)nc(N3CCN(C)CC3)nc2cc1OCCCN1CCCC1 [Compound 236]
2. COc1cc2c(N[C@@H]3CCCNC3)nc(N3CCCC3)nc2cc1OCCCN1CCCC1 [Compound 159]
3. COc1cc2c(NC3CCS(=O)(=O)CC3)nc(N3CCC(F)(F)CC3)nc2cc1C#CCN1CCCC1 [Compound 248]
4. COc1cc2c(NC3CCS(=O)(=O)CC3)nc(N3CCS(=O)(=O)CC3)nc2cc1OCCCN1CCCC1 [Compound 103]
5. COc1cc2c(Nc3ccncc3)nc(-n3ccnc3)nc2cc1OCCCN1CCCC1 [Compound 130]

[reply]
1: 22.8 min; 2: 39.3 min; 3: > 60 min; 4: > 60 min; 5: 32.1 min

###

# experiment.notes: PAMPA permeability
# condition.label: PAMPA, Permeability, Pe, 20 μM donor in PBS/MeOH 90:10; 5 hours at RT
Label criterion met when Papp at 5 h, 20 μM >= 0.02 ×10⁻⁶ cm/s; otherwise criterion not met.

[ask] hey, is Papp at 5 h, 20 μM for this one >= 0.02 ×10⁻⁶ cm/s? COc1cc2c(N[C@@H]3CCCNC3)nc(N3CCCC3)nc2cc1OCCCN1CCCC1
[reply] criterion met

[ask] hey, is Papp at 5 h, 20 μM for this one >= 0.02 ×10⁻⁶ cm/s? COc1cc2c(NC3CCS(=O)(=O)CC3)nc(N3CCN(C)CC3)nc2cc1OCCCN1CCCC1
[reply] criterion not met

[ask] hey, is Papp at 5 h, 20 μM for this one >= 0.02 ×10⁻⁶ cm/s? COc1cc2c(NC3CCNCC3)nc(N3CCC(F)(F)CC3)nc2cc1OCCCN1CCCC1
[reply] criterion not met

[ask] hey, is Papp at 5 h, 20 μM for this one >= 0.02 ×10⁻⁶ cm/s? COc1cc2c(NCC3CCN(C)CC3)nc(N3CCC(F)(F)CC3)nc2cc1OCCCN1CCCC1
[reply] criterion not met

[ask] hey, is Papp at 5 h, 20 μM for this one >= 0.02 ×10⁻⁶ cm/s? COc1cc2c(Nc3ccncc3)nc(N3CCC(F)(F)CC3)nc2cc1OCCCN1CCCC1
[reply] criterion met

More entries:
[ask] hey, is Papp at 5 h, 20 μM for this one >= 0.02 ×10⁻⁶ cm/s? COc1cc2c(NC3CCN(C(C)C)CC3)nc(-n3ccnc3)nc2cc1OCCCN1CCCC1
[reply] criterion not met

[ask] hey, is Papp at 5 h, 20 μM for this one >= 0.02 ×10⁻⁶ cm/s? COc1cc2c(NC3CCOCC3)nc(N3CCS(=O)(=O)CC3)nc2cc1OCCCN1CCCC1
[reply] criterion met

[ask] hey, is Papp at 5 h, 20 μM for this one >= 0.02 ×10⁻⁶ cm/s? COc1cc2c(NC3CCOCC3)nc(N3CCCN(C)CC3)nc2cc1OCCCN1CCCC1
[reply] criterion not met

[ask] hey, is Papp at 5 h, 20 μM for this one >= 0.02 ×10⁻⁶ cm/s? COc1cc2c(NC3CCOCC3)nc(N3CCN(C)CC3)nc2cc1OCCCN1CCCC1
[reply] criterion met

###

So I've got a bunch of compounds here, and I need their pIC50 values.
# tested.on: CYP2D6 (Homo sapiens, UniProt P10635)
# Construct: from tissue; host or cells: pooled human liver microsomes
# experiment.notes: CYP-direct inhibition, CYP2D6
# Type: in vitro ADME
# condition.label: human liver microsome; substrate dextromethorphan; read-out: IC50 CYP-2D6
pIC50: −log10 of the molar value.

The value of pIC50 measured for the compound COc1cc2c(NCC3CCN(C)CC3)nc(N3CCC(F)(F)CC3)nc2cc1OCCCN1CCCC1 turned out to be < 4.00

The value of pIC50 measured for the compound COc1cc2c(NC3CCS(=O)(=O)CC3)nc(N3CCCN(C)CC3)nc2cc1OCCCN1CCCC1 turned out to be < 4.00

More entries:
The value of pIC50 measured for the compound COc1cc2c(NC3CCS(=O)(=O)CC3)nc(N3CCS(=O)(=O)CC3)nc2cc1OCCCN1CCCC1 turned out to be < 4.00

###

# tested.on: CYP2D6 (Homo sapiens)
# Construct: from tissue; host or cells: pooled human liver microsomes
# experiment.notes: CYP-direct inhibition, CYP2D6
# Assay type: in vitro ADME
# condition.label: human liver microsome; substrate dextromethorphan; read-out: IC50 CYP-2D6
So I've got a bunch of compounds here, and I need their pIC50 values.
Numbers only, as −log10 of the molar value.

The value of pIC50 measured for the compound COc1cc2c(N[C@H]3CCCNC3)nc(N3CCCC3)nc2cc1OCCCN1CCCC1 [Compound 158] turned out to be 4.18

The value of pIC50 measured for the compound COc1cc2c(NC3CCOCC3)nc(N3CCS(=O)(=O)CC3)nc2cc1OCCCN1CCCC1 [Compound 196] turned out to be 4.07

Could you now look at the following compound, please?
The value of pIC50 measured for the compound COc1cc2c(NC3CCN(C(C)C)CC3)nc(-n3cccn3)nc2cc1OCCCN1CCCC1 [Compound 157] turned out to be 4.19

###

# System: HCT-116
# experiment.notes: HCT-116 cell viability (Real-Time-Glo)
# Type: cell-based
# condition.label: Homo sapiens, 72 hr, read-out: IC50, Cell line: HCT-116
# Description: To determine the plating density for cell viability assays, for each cell line, cells were counted and diluted to final densities of 2.5, 5, 10 and 20 thousand per 100 μl of their respective growth media per well in 96 well plates. […] Test compounds were then added at different concentrations for the creation of six-point curve and cell density was determined using the Promega Real-Time-Glo cell viability kit after 24, 48, and 72 hrs in culture.
pIC50: −log10 of the molar value.
quantity.name: pIC50

Known pIC50 results, listed for orientation:
The value of pIC50 measured for the compound COc1cc2c(NC3CCN(C(C)C)CC3)nc(N3CCC3)nc2cc1OCCCN1CCCC1 turned out to be 5.30 to 6.00

The value of pIC50 measured for the compound COc1cc2c(Nc3ccncc3)nc(N3CCC(F)(F)CC3)nc2cc1OCCCN1CCCC1 turned out to be 5.30 to 6.00

The value of pIC50 measured for the compound COc1cc2c(NC3CCN(C(C)C)CC3)nc(C#N)nc2cc1OCCCN1CCCC1 turned out to be 5.30 to 6.00

Could you now look at the following compound, please?
The value of pIC50 measured for the compound COc1cc2c(NC3CCN(C4CCCCC4)CC3)nc(N3CCCN(C(C)C)CC3)nc2cc1OCCCN1CCCCC1 [Compound 402, reference compound] turned out to be 5.00 to 5.30
